Measured Plant response rating, Crabgrass values are reported for all entries that follow.
system: crabgrass (Digitaria sanguinalis); experiment: Test B pre/postemergence; assay type: in vivo; details: Preemergence, 125 g ai/ha; scale 0 to 100 (0 no effect, 100 complete control)
Write the value as a bare number.

Fill in Plant response rating, Crabgrass for record `COC(=O)c1nc(-c2ccc(C(F)(F)F)cc2)nc(N)c1Cl` 40

Fill in Plant response rating, Crabgrass for record `CC(C)OC(=O)c1nc(C2CC2)nc(N)c1Br` 10

Fill in Plant response rating, Crabgrass for record `CN(C)N=Cc1nc(C2CC2)nc(N)c1Br` 50

Fill in Plant response rating, Crabgrass for record `COC(=O)Cc1nc(C2CC2)nc(N)c1Br` 50

Fill in Plant response rating, Crabgrass for record `CCCCOC(=O)c1nc(C2CC2)nc(N)c1Cl` 90

Fill in Plant response rating, Crabgrass for record `COCc1nc(C2CC2)nc(N)c1Br` 30

Fill in Plant response rating, Crabgrass for record `CCOC(=O)Cc1nc(-c2ccc(Cl)cc2)nc(N)c1Br` 0

Fill in Plant response rating, Crabgrass for record `CCOC(=O)c1nc(C2CC2)nc(N=CN(C)C)c1Br` 60

Fill in Plant response rating, Crabgrass for record `COC(=O)CNc1nc(C2CC2)nc(C(=O)OC)c1Br` 20

Fill in Plant response rating, Crabgrass for record `Nc1nc(-c2ccc(Br)cc2)nc(C(=O)O)c1Br` 80
